System: MS2 coat protein
Assay: apparent KD of MS2 coat protein; designed switch direction (-1 OFF switch, 1 ON switch): -1; higher = weaker reporter binding
Details: Eterna round: R95; input ligand: none
Recorded apparent KD of MS2 coat protein by entry
Value kind: apparent KD of MS2 coat protein (nM)

Item sequence: AAGAAACAUGAGGAUCACCCAUGUGAGGAUAUGAGCAAGAAAAGAAAAGAAAGAAGAAUCAGAAGGCACAAAGG [salish99-ex1_r3_050] (puzzle: Exclusion 1)
Value kind: apparent KD of MS2 coat protein
Recorded measurement: 49.3
--
Item sequence: UUUAAUUUUUUUUUUUUACAAGCUUUUUGCUCGUCUUAUACAUGAGGAUCACCCAUGUGGGUGAAAAGUAAAUUAUC [JMF 44] (puzzle: Sensor v3, turn-off variant 2)
Value kind: apparent KD of MS2 coat protein
Recorded measurement: 33.1
--
Item sequence: UAGUAUAUCUAUGGGAGUAACAUGAGGAUCACCCAUGUAUGUCUUGUUUUUUGUUCGUCAUAGGCCGGUUGAACGGU [JR_SV3TOV1_Sub027] (puzzle: Sensor v3, turn-off variant 1)
Value kind: apparent KD of MS2 coat protein
Recorded measurement: 26.5
--
Item sequence: GGAAGACAUGAGGAUCACCCAUGUAAGGAUAUCGAAGGUAAGAGAGGAAAGAAGGGAACGAGAAGGUACAGGUG [JR_Exclu1_Sub095] (puzzle: Exclusion 1)
Value kind: apparent KD of MS2 coat protein
Recorded measurement: 123
--
Item sequence: AGAUGGCGAGGAUAUACAUGAGGAUCACCCAUGUGAAGAUAUAAAGUGAGGAAGAAAAGUAGAAGGCGCUGUCA [Mat - Exclusion 3 - Mod of Salish D25] (puzzle: Exclusion 3)
Value kind: apparent KD of MS2 coat protein
Recorded measurement: 63.7
--
Item sequence: GUGUAGUGAGGAUAUACAUGAGGAUCACCCAUGUGAAUAAGAUAGAAUAAGAUAAAGUGUAGAAGGCACAGUGU [Excluse me!!! 3 - Jieux - Exclusion 3] (puzzle: Exclusion 3)
Value kind: apparent KD of MS2 coat protein
Recorded measurement: 41.9
--
Item sequence: GAUAGAGCAGGAUAUUCAAUAUAUCACAUGAGGAUCACCCAUGUCCAGCGAAAGCUGGAGGGAGAAGGGCUCUAUC [Mat - Exclusion 5 - Eli mod - D99] (puzzle: Exclusion 5)
Value kind: apparent KD of MS2 coat protein
Recorded measurement: 262
--
Item sequence: GAAGAAGAGAGAAAAGAAAACAUGAGGAUCACCCAUGUGAGAAGAUGAGGGUGUAACAGGCUUUAUGCUCGUCUUAU (puzzle: Sensor v3, turn-off variant 1)
Value kind: apparent KD of MS2 coat protein
Recorded measurement: 40.1
--
Item sequence: GACCGGACGUGGUCUGGUAACAUGAGGAUCACCCAUGUAGGUCUAAGAACAUGCCUUUUGCACGCUCGUCUUAUAUA [JR_SV3TOV1_Sub063] (puzzle: Sensor v3, turn-off variant 1)
Value kind: apparent KD of MS2 coat protein
Recorded measurement: 63.8
--
Item sequence: GGUACUAACACGAAAGUGUUAGUACUAUAAGCUUGUGUUACAUGAGGAUCACCCAUGUCCUCAUAAGCUCGUCUUAU [JL-sv3-2.16 mat747 mod] (puzzle: Sensor v3, turn-off variant 2)
Value kind: apparent KD of MS2 coat protein
Recorded measurement: 108

* * *

Test system: K4 kissing-loop RNA reporter;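 also: bound reporter read as fluorescence of individual clusters on recovered sequencing chips by microscopy, with normalized cluster intensities fitted with a binding model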
Experiment: apparent KD of K4 kissing-loop reporter; higher = weaker reporter binding
Conditions: Eterna round: R107; input ligand: theophylline 20 uM

Item sequence: CGAGUGAUGUUCGUUCGUUUAUUUGGGUGACAGGAUAUGCGGAAACGCAGAAGGGUCACCUUCGGGUUACCCGAAUUAACGUUAU [#09 K4 FMN A Exclusion]
apparent KD of K4 kissing-loop reporter, nM: 587
--
Item sequence: AGUGAUAUAUGAGGAUAUGGGUUGGUUAAUGAGUUAGUUUUAGUGUUGUUUGGUUAGUGAUGUUAUUUAGAAGGCGUGAGUGAUG [sffdsmullin]
apparent KD of K4 kissing-loop reporter, nM: 95.8
--
Item sequence: CCCUCACGAGUGAUGUUCGUAGGGUACAGUCAGGAUAUCAUGCGGUUGAGAAGGGACAGAGAAGGCGGCCACGGGUUGCUUAUCU [Ussoat]
apparent KD of K4 kissing-loop reporter, nM: 388
--
Item sequence: UGUGUGUAGGGAAGGAGCGCCGAGAGAAGAAGAAAAGAGUGAUGUUCAAGACAAUAAAGACGGCAGGUAGGUCGCCCUGUGUGUG [Default title]
apparent KD of K4 kissing-loop reporter, nM: 517
--
Item sequence: GCCGUACGCAUGGAUACCAGCAAGUAUAUAUGCUAGUGAUGUUAGCGCUAUGCGAUGCGGUGCCCUUGGCAGCCAUGCGUACGGC
apparent KD of K4 kissing-loop reporter, nM: 106
--
Item sequence: GAACGGCGGGCGGCCGCCACUGGUAUACGAGUGAUGUUCGGAUAUACGUGAUGUAAGGUAAUUAUCAGGACCGGGUCAGAGCCGG [#16 K4 Tryptophan B Same State]
apparent KD of K4 kissing-loop reporter, nM: 341

* * *

Tested on: MS2 coat protein
Test: apparent KD of MS2 coat protein; designed switch direction (-1 OFF switch, 1 ON switch): -1; higher = weaker reporter binding
Details: input ligand: FMN 200 uM
Decision: apparent KD of MS2 coat protein compared against 90 nM; not below it gives yes (1), below it gives no (0).

Item sequence: CUAAUACAUCAGGAUAUCUUAGCCUAUAGCAUAAGAGAAGGGAUGACAUGAGGAUCACCCAUGUCAAAGGGUGA [eternacac ex6r4 sub20] (Eterna round: R97, puzzle: Exclusion 6)
Category label: yes (1)
//
Item sequence: AAAUCGGUAGAGGAUAUUGUACAGGAAACGGUGCAAGAAGGUUACACAUGAGGAUCACCCAUGUUAAAUUGCGA [EX6 #52] (Eterna round: R97, puzzle: Exclusion 6)
Category label: no (0)
//
Item sequence: UCGAGUGCUGAGGAUAUCUGCGAGUAAAGCUCAAGAGAAGGCAGUACAUGAGGAUCACCCAUGUGGAGCCUGUG [EX6 B.27] (Eterna round: R97, puzzle: Exclusion 6)
Category label: no (0)
//
Item sequence: GGUCUACAUGAGGAUCACCCAUGUAAGGAUAUCGUCACUGGAGCUUCGGCUCCAGUGACGAGAAGGUGCAUAAU [E1/11-A1] (Eterna round: R97, puzzle: Exclusion 1)
Category label: no (0)
//
Item sequence: UUUUCACAUGAGGAUCACCCAUGUGAGGAUAUGGUUUCGCUGGCCGUAGCCAGUGGAACCAGAAGGCGCAUGAU [Mat - Exclusion 1 - JL Mod - D6] (Eterna round: R97, puzzle: Exclusion 1)
Category label: no (0)
//
Item sequence: UGCCGGGCGUGAUCGGAUGACAUGAGGAUCACCCAUGUGCCAGCACAUAAUACCGCUCGCGGUUUUUUGCUCGUCAU [Eternabot (Original) Solution 12] (Eterna round: R97, puzzle: Sensor, turn-off variant 1)
Category label: yes (1)
//
Item sequence: GCAGUGACAUGAGGAUCACCCAUGUGGAACUCGUGAAUAAGCGAGGAUAUCUCAAGAUAUCAAAGAGAGAAGGCGUACACUGCA [Diorso] (Eterna round: R96, puzzle: Exclusion NG 3)
Category label: yes (1)
//
Item sequence: CAUUAUGUUGAGGAUAUGCGCCGGAAAACUGACGCAGAAGGCGACACAUGAGGAUCACCCAUGUCAGUUUUCGA [salish99_ex6_r004_426] (Eterna round: R97, puzzle: Exclusion 6)
Category label: yes (1)
//
Item sequence: GGUCUUCAAGUCAGGAUAUCGUCUAGUCGGUCUGGCGAGAAGGGACAUGAGGAUCACCCAUGUCGUCUCAUCAG [Ex4 #14] (Eterna round: R97, puzzle: Brourd's mod of Exclusion 4)
Category label: no (0)
//
Item sequence: ACAUGAGGAUCACCCAUGUGCCCAUCUAGCACAUGUCCUCGCUAGGAUAUGUAGGCCUCGAGGCCGCAGAAGGAGCUAAAAGAG [Atgequa] (Eterna round: R96, puzzle: Exclusion NG 3)
Category label: yes (1)

* * *

Below, each entry is listed alongside its reported apparent KD of MS2 coat protein.
Tested on: MS2 coat protein
Test: apparent KD of MS2 coat protein; designed switch direction (-1 OFF switch, 1 ON switch): 1; higher = weaker reporter binding
Conditions: input ligand: FMN 200 uM

Item sequence: AACCAGGCCAGAGGAUAUGGGAAAGGAAGUGUACUAGAAGGCUGCAGCCUGAACAAACAUGAGGAUCACCCAUGUAAAACGGUG [PowerStrip SSNG 1.27] (Eterna round: R96, puzzle: Same State NG 1)
apparent KD of MS2 coat protein / µM: 0.296

Item sequence: UUGAAGAAUUAAGGAUAUUGAAUACAUAUGUUUAACAUGAGGAUCACCCAUGUGGGUUGCGGUAUCGAGAAGGUAAAUUAAAAG [Mat - Same State NG 2 - JL mod - D2] (Eterna round: R96, puzzle: Same State NG 2)
apparent KD of MS2 coat protein / µM: 0.142

Item sequence: GAGGAGGAUACAGGAUAUAUACAUGAGGAUCACACAUACAUGACAUGAGGAUCACCCAUGUUUGUAUAGAAGGGUAAGAGGAGG [Seems to be working] (Eterna round: R96, puzzle: Same State NG 2)
apparent KD of MS2 coat protein / µM: 0.0512

Item sequence: GCGAAAUGAUGAAACAUGAGGAUCACCCAUGUAACGAGAGAUGAGGAUAUCGGAAAGGGAGGAGACGAGAAGGCAUGGUCACGC [AK SSNG3-V2-25.1] (Eterna round: R96, puzzle: Same State NG 3)
apparent KD of MS2 coat protein / µM: 0.0484
